# Tested on: aspirin ulcer
# TEST_METHOD_NOTES: Anti-aspirin ulcer test, oral administration
# Format: in vivo, Crj:Wistar rat (male)
# CONDITION_LABEL: 100 mg/kg oral, 30 min before aspirin 200 mg/kg oral, 6 h; control 76.0
# Protocol: Each 100 mg/kg of the test compounds was administered orally to a male Crj:Wistar rat of 198 to 243 g body weight fasted for ca. 24 hours (7 to 8 rats per group) and 30 minutes after the administration 200 mg/5 ml/kg of aspirin suspended in 0.5% sodium CMC aqueous solution was administered orally. Six hours later the animals was killed by exsanguination and the cardia part of stomach was ligated and 10 ml of 1% formaline solution was poured into the stomach and the stomach was extirpated. […]
Rule: True for Gastric damage index not less than 30 mm, False for anything less.

[[record]]
molecule = "O=S(=O)(NC(Cc1ccc(O)cc1)CN1CCC(OCc2ccc(Cl)c(Cl)c2)CC1)c1cccc2cnccc12 (centres unmarked)"
group = "False"

[[record]]
molecule = "COc1ccc(CC(CN2CCCN(C(=O)OCc3ccccc3)CC2)N(CCN(C)C)S(=O)(=O)c2cccc3cnccc23)cc1 (centres unmarked)"
group = "False"

[[record]]
molecule = "CN(C(Cc1ccc(O)cc1)CN1CCC(c2ccccc2)CC1)S(=O)(=O)c1cccc2cnccc12 (centres unmarked)"
group = "False"

[[record]]
molecule = "CN(C(Cc1ccc(O)cc1)CN1CCN(c2cccc(Cl)c2)CC1)S(=O)(=O)c1cccc2cnccc12 (centres unmarked)"
group = "True"

[[record]]
molecule = "CN(C(Cc1ccc(O)cc1)CN1CCCN(C(=O)OCc2ccccc2)CC1)S(=O)(=O)c1cccc2cnccc12 (centres unmarked)"
group = "False"


====

# Test system: water immersion restriction stress ulcer
# TEST_METHOD_NOTES: Water immersion restriction stress ulcer, oral administration
# Type: in vivo, Crj:Wistar rat (male)
# CONDITION_LABEL: Rattus norvegicus, 6 h; gastric damage index vs control; 100 mg/kg oral, water immersion stress; read-out: Inhibition rate
MEASURED_PROPERTY: inhibition in vivo at 100 mg/kg (%)

[[record]]
compound = "COc1ccc(CC(CN2CCN(C(=O)OCc3ccccc3)CC2)N(C)S(=O)(=O)c2cccc3cnccc23)cc1 (stereo not drawn)"
reading = 51

[[record]]
compound = "O=C(C(Cc1ccc(OS(=O)(=O)c2cccc3cnccc23)cc1)NS(=O)(=O)c1cccc2cnccc12)N1CCN(c2ccccc2)CC1 (stereo not drawn)"
reading = 40

[[record]]
compound = "CN(C(Cc1ccc(OS(=O)(=O)c2cccc3cnccc23)cc1)CN1CCC(c2ccccc2)CC1)S(=O)(=O)c1cccc2cnccc12 (stereo not drawn)"
reading = 29


====

# System: aspirin ulcer
# TEST_METHOD_NOTES: Anti-aspirin ulcer test, oral administration
# Assay type: in vivo, Crj:Wistar rat (male)
# CONDITION_LABEL: Rattus norvegicus, 6 h; gastric damage index vs control; 100 mg/kg oral, aspirin 200 mg/kg; read-out: Inhibition rate
MEASURED_PROPERTY: inhibition in vivo at 100 mg/kg (%)

[[record]]
molecule = "COc1ccc(CC(CN2CCC(OCc3ccc(Cl)c(Cl)c3)CC2)N(C)S(=O)(=O)c2cccc3cnccc23)cc1 (stereo not drawn) [(9)]"
target_or_test_system = "aspirin ulcer"
output_unit = "%"
reading = 40

[[record]]
molecule = "CN(C(Cc1ccc(O)cc1)CN1CCCN(C(=O)OCc2ccccc2)CC1)S(=O)(=O)c1cccc2cnccc12 (stereo not drawn) [(14)]"
target_or_test_system = "aspirin ulcer"
output_unit = "%"
reading = 85

[[record]]
molecule = "O=C(C(Cc1ccc(OS(=O)(=O)c2cccc3cnccc23)cc1)NS(=O)(=O)c1cccc2cnccc12)N1CCN(c2ccccc2)CC1 (stereo not drawn) [(12)]"
target_or_test_system = "aspirin ulcer"
output_unit = "%"
reading = 43

[[record]]
molecule = "COc1ccc(CC(CN2CCCN(C(=O)OCc3ccccc3)CC2)N(CCN(C)C)S(=O)(=O)c2cccc3cnccc23)cc1 (stereo not drawn) [(16)]"
target_or_test_system = "aspirin ulcer"
output_unit = "%"
reading = 78

[[record]]
molecule = "CN(C(Cc1ccc(OS(=O)(=O)c2cccc3cnccc23)cc1)C(=O)N1CCN(c2ccccc2)CC1)S(=O)(=O)c1cccc2cnccc12 (stereo not drawn) [(13)]"
target_or_test_system = "aspirin ulcer"
output_unit = "%"
reading = 60

[[record]]
molecule = "O=S(=O)(NC(Cc1ccc(O)cc1)CN1CCCN(c2ccccc2)CC1)c1cccc2cnccc12 (stereo not drawn) [(6)]"
target_or_test_system = "aspirin ulcer"
output_unit = "%"
reading = 30

[[record]]
molecule = "O=S(=O)(NC(Cc1ccc(OS(=O)(=O)c2cccc3cnccc23)cc1)CN1CCN(c2ccc(F)cc2)CC1)c1cccc2cnccc12 (stereo not drawn) [(3)]"
target_or_test_system = "aspirin ulcer"
output_unit = "%"
reading = 25

[[record]]
molecule = "CN(C(Cc1ccc(OS(=O)(=O)c2cccc3cnccc23)cc1)CN1CCC(c2ccccc2)CC1)S(=O)(=O)c1cccc2cnccc12 (stereo not drawn) [(10)]"
target_or_test_system = "aspirin ulcer"
output_unit = "%"
reading = 37

[[record]]
molecule = "O=S(=O)(NC(Cc1ccc(O)cc1)CN1CCN(c2ccccc2)CC1)c1cccc2cnccc12 (stereo not drawn) [(1)]"
target_or_test_system = "aspirin ulcer"
output_unit = "%"
reading = 47

[[record]]
molecule = "O=S(=O)(NC(Cc1ccc(O)cc1)CN1CCC(OCc2ccc(Cl)c(Cl)c2)CC1)c1cccc2cnccc12 (stereo not drawn) [(7)]"
target_or_test_system = "aspirin ulcer"
output_unit = "%"
reading = 65

[[record]]
molecule = "CN(C(Cc1ccc(O)cc1)CN1CCN(c2cccc(Cl)c2)CC1)S(=O)(=O)c1cccc2cnccc12 (stereo not drawn) [(2)]"
target_or_test_system = "aspirin ulcer"
output_unit = "%"
reading = 46

[[record]]
molecule = "CN(C(Cc1ccc(O)cc1)CN1CCC(c2ccccc2)CC1)S(=O)(=O)c1cccc2cnccc12 (stereo not drawn) [(11)]"
target_or_test_system = "aspirin ulcer"
output_unit = "%"
reading = 64

[[record]]
molecule = "CN(C(Cc1ccc(O)cc1)CN1CCC(OCc2ccc(Cl)c(Cl)c2)CC1)S(=O)(=O)c1cccc2cnccc12 (stereo not drawn) [(8)]"
target_or_test_system = "aspirin ulcer"
output_unit = "%"
reading = 62

[[record]]
molecule = "CN(C(Cc1ccc(O)cc1)CN1CCN(C(=O)OCc2ccccc2)CC1)S(=O)(=O)c1cccc2cnccc12 (stereo not drawn) [(4)]"
target_or_test_system = "aspirin ulcer"
output_unit = "%"
reading = 55

[[record]]
molecule = "COc1ccc(CC(CN2CCN(C(=O)OCc3ccccc3)CC2)N(C)S(=O)(=O)c2cccc3cnccc23)cc1 (stereo not drawn) [(5)]"
target_or_test_system = "aspirin ulcer"
output_unit = "%"
reading = 53


====

# Tested on: water immersion restriction stress ulcer
# TEST_METHOD_NOTES: Water immersion restriction stress ulcer, intraperitoneal administration
# Assay type: in vivo, Crj:Wistar rat (male)
# CONDITION_LABEL: 100 mg/kg intraperitoneal, control 22.7
MEASURED_PROPERTY: Gastric damage index (mm)

[[record]]
molecule = "COc1ccc(CC(CN2CCCN(C(=O)OCc3ccccc3)CC2)N(CCN)S(=O)(=O)c2cccc3cnccc23)cc1 (centres unmarked)"
measured_property = "Gastric damage index"
output_unit = "mm"
reading = 6.6

[[record]]
molecule = "CN(C(Cc1ccc(O)cc1)CN1CCCN(C(=O)OCc2ccccc2)CC1)S(=O)(=O)c1cccc2cnccc12 (centres unmarked)"
measured_property = "Gastric damage index"
output_unit = "mm"
reading = 3.9

[[record]]
molecule = "O=S(=O)(NC(Cc1ccc(O)cc1)CN1CCC(OCc2ccc(Cl)c(Cl)c2)CC1)c1cccc2cnccc12 (centres unmarked)"
measured_property = "Gastric damage index"
output_unit = "mm"
reading = 7.0

[[record]]
molecule = "COc1ccc(CC(CN2CCCN(C(=O)OCc3ccccc3)CC2)N(CCN(C)C)S(=O)(=O)c2cccc3cnccc23)cc1 (centres unmarked)"
measured_property = "Gastric damage index"
output_unit = "mm"
reading = 5.4

[[record]]
molecule = "CN(C(Cc1ccc(OS(=O)(=O)c2cccc3cnccc23)cc1)C(=O)N1CCN(c2ccccc2)CC1)S(=O)(=O)c1cccc2cnccc12 (centres unmarked)"
measured_property = "Gastric damage index"
output_unit = "mm"
reading = 6.4


====

The following molecules are listed with their measured Amount of gastric juice values.
# Test system: gastric juice secretion
# TEST_METHOD_NOTES: Anti-gastric juice secretion test, intraduodenal administration (pylorus ligation)
# Type: in vivo, Crj:Wistar rat (male)
# CONDITION_LABEL: 100 mg/kg intraduodenal, 4 h after pylorus ligation; control 2.6
MEASURED_PROPERTY: Amount of gastric juice (ml/100 g body weight)

[[record]]
molecule = "CN(C(Cc1ccc(O)cc1)CN1CCCN(C(=O)OCc2ccccc2)CC1)S(=O)(=O)c1cccc2cnccc12 (stereo not shown) [(14)]"
measured_property = "Amount of gastric juice"
reading = 0.6

[[record]]
molecule = "O=S(=O)(NC(Cc1ccc(O)cc1)CN1CCCN(c2ccccc2)CC1)c1cccc2cnccc12 (stereo not shown) [(6)]"
measured_property = "Amount of gastric juice"
reading = 2.3

[[record]]
molecule = "COc1ccc(CC(CN2CCN(C(=O)OCc3ccccc3)CC2)N(C)S(=O)(=O)c2cccc3cnccc23)cc1 (stereo not shown) [(5)]"
measured_property = "Amount of gastric juice"
reading = 1.8

[[record]]
molecule = "CN(C(Cc1ccc(O)cc1)CN1CCN(C(=O)OCc2ccccc2)CC1)S(=O)(=O)c1cccc2cnccc12 (stereo not shown) [(4)]"
measured_property = "Amount of gastric juice"
reading = 1.8

[[record]]
molecule = "COc1ccc(CC(CN2CCC(OCc3ccc(Cl)c(Cl)c3)CC2)N(C)S(=O)(=O)c2cccc3cnccc23)cc1 (stereo not shown) [(9)]"
measured_property = "Amount of gastric juice"
reading = 2.2

[[record]]
molecule = "CN(C(Cc1ccc(O)cc1)CN1CCN(c2cccc(Cl)c2)CC1)S(=O)(=O)c1cccc2cnccc12 (stereo not shown) [(2)]"
measured_property = "Amount of gastric juice"
reading = 2.1

[[record]]
molecule = "CN(C(Cc1ccc(OS(=O)(=O)c2cccc3cnccc23)cc1)CN1CCC(c2ccccc2)CC1)S(=O)(=O)c1cccc2cnccc12 (stereo not shown) [(10)]"
measured_property = "Amount of gastric juice"
reading = 2.4

[[record]]
molecule = "COc1ccc(CC(CN2CCCN(C(=O)OCc3ccccc3)CC2)N(CCN(C)C)S(=O)(=O)c2cccc3cnccc23)cc1 (stereo not shown) [(16)]"
measured_property = "Amount of gastric juice"
reading = 0.9

[[record]]
molecule = "CN(C(Cc1ccc(O)cc1)CN1CCC(c2ccccc2)CC1)S(=O)(=O)c1cccc2cnccc12 (stereo not shown) [(11)]"
measured_property = "Amount of gastric juice"
reading = 1.5

[[record]]
molecule = "CN(C(Cc1ccc(O)cc1)CN1CCC(OCc2ccc(Cl)c(Cl)c2)CC1)S(=O)(=O)c1cccc2cnccc12 (stereo not shown) [(8)]"
measured_property = "Amount of gastric juice"
reading = 1.6

[[record]]
molecule = "O=S(=O)(NC(Cc1ccc(OS(=O)(=O)c2cccc3cnccc23)cc1)CN1CCN(c2ccc(F)cc2)CC1)c1cccc2cnccc12 (stereo not shown) [(3)]"
measured_property = "Amount of gastric juice"
reading = 2.5

[[record]]
molecule = "COc1ccc(CC(CN2CCCN(C(=O)OCc3ccccc3)CC2)N(CCN)S(=O)(=O)c2cccc3cnccc23)cc1 (stereo not shown) [(15)]"
measured_property = "Amount of gastric juice"
reading = 1.1

[[record]]
molecule = "O=S(=O)(NC(Cc1ccc(O)cc1)CN1CCN(c2ccccc2)CC1)c1cccc2cnccc12 (stereo not shown) [(1)]"
measured_property = "Amount of gastric juice"
reading = 2.2

[[record]]
molecule = "O=S(=O)(NC(Cc1ccc(O)cc1)CN1CCC(OCc2ccc(Cl)c(Cl)c2)CC1)c1cccc2cnccc12 (stereo not shown) [(7)]"
measured_property = "Amount of gastric juice"
reading = 1.2

[[record]]
molecule = "CN(C(Cc1ccc(OS(=O)(=O)c2cccc3cnccc23)cc1)C(=O)N1CCN(c2ccccc2)CC1)S(=O)(=O)c1cccc2cnccc12 (stereo not shown) [(13)]"
measured_property = "Amount of gastric juice"
reading = 1.9

[[record]]
molecule = "O=C(C(Cc1ccc(OS(=O)(=O)c2cccc3cnccc23)cc1)NS(=O)(=O)c1cccc2cnccc12)N1CCN(c2ccccc2)CC1 (stereo not shown) [(12)]"
measured_property = "Amount of gastric juice"
reading = 2.2


These data points were gathered from patent US5244895A.
